The measured values listed here are drawn from paper PMC9079729.

Biological target: UniProtKB H1XW48
Sequence (H1XW48 19-558): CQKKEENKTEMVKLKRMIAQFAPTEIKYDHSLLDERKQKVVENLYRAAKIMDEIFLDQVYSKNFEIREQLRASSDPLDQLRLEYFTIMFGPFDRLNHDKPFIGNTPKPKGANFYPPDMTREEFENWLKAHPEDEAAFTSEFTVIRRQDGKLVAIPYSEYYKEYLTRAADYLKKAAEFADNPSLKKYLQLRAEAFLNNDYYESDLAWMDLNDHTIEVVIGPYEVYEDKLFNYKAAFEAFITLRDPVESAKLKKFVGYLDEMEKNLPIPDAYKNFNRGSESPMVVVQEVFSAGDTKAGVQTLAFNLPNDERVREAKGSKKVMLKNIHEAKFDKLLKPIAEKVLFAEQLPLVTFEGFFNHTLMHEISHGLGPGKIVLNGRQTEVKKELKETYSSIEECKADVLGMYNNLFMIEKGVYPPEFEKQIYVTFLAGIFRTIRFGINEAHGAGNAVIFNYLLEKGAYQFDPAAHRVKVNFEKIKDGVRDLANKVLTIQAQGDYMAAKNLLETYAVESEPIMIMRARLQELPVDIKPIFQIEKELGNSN
Residues, ends and D or L forms follow the SMILES beside them.
READOUT_NAME: pKi
Friendly reminder that pKi comes from taking -log10 of the concentration in mol/L.

# lookup: UniProtKB H1XW48 pKi, key = CC(C)[C@H](N)C(=O)N[C@H](C(=O)N[C@@H](Cc1ccc(O)cc1)C(=O)N1CCC[C@H]1C(=O)N[C@@H](Cc1c[nH]c2ccccc12)C(=O)O)C(C)C [tynorphin] (H-VVYPW-OH)
4.78
